Recorded pIC50 values (RNA demethylase ALKBH5 (Homo sapiens, UniProt Q6P6C2)) are given below.
Remember the convention: pIC50 equals -log10 of concentration in molar.

query: Short answer please: pIC50, RNA demethylase ALKBH5 (Homo sapiens, UniProt Q6P6C2), entry O=C(C1CC1)N1CCN(S(=O)(=O)c2ccc(OC(F)(F)F)cc2)CC1 [US20230322715, Compound TR-ALKBH5-41]
result: 6.35

query: What pIC50 appears in the records for this compound with RNA demethylase ALKBH5 (Homo sapiens, UniProt Q6P6C2)? O=S(=O)(Nc1ccc(Cl)c(Cl)c1)c1ccc(OC(F)(F)F)cc1 [US20230322715, Compound TR-ALKBH5-33]
Sequence (Q6P6C2 whole entry): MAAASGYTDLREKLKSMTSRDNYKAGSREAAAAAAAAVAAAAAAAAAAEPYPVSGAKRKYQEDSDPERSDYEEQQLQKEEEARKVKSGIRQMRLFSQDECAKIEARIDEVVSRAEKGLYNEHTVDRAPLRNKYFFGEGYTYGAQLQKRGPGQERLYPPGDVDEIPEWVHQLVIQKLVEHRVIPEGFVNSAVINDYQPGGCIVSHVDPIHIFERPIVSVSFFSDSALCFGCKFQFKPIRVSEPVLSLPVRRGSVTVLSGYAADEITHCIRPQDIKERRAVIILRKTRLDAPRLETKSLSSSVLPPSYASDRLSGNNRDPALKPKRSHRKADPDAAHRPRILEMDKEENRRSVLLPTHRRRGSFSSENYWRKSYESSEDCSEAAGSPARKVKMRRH
result: 5.59
